# key: entry, value: GI50
# Test system: CAKI-1
# Measurement Notes: NCI tumour cell line growth inhibition, 48 h
Active and inactive are the calls of the source. Cut-off read from the data, not from the text of the source: active = GI50 up to about 1.1 µM and inactive = higher.
Measurement Type: GI50

- CSc1[nH]nc(N)c1C(=O)Nc1ccc(Cl)cc1: 46.2 µM (inactive)
- CC(=O)Nc1ccccc1-c1nc2ccccc2nc1-c1ccccc1: > 100 µM (inactive)
- C/C=C1/CN2CCC34C(=C(C(=O)OC)C1CC23)Nc1ccc(O)cc14 (centres undefined): > 100 µM (inactive)
- Nc1c(C(=O)Nc2ccc(C3=NCCN3)cc2)cccc1C(=O)Nc1ccc(C2=NCCN2)cc1: > 100 µM (inactive)
- COc1c(C(=O)O)cccc1-c1cccc(C(=O)NCCN(CCNC(=O)c2cccc(-c3cccc(C(=O)O)c3OC)c2OC)CCNC(=O)c2cccc(-c3cccc(C(=O)O)c3OC)c2OC)c1OC: 51.6 µM (inactive)
- Cc1[nH]c(=O)nc(N/N=C/c2ccc(O)cc2)c1C(=O)Nc1ccc(O)cc1: > 100 µM (inactive)
- COc1ccc([N+](=O)[O-])cc1[I+]c1cc([N+](=O)[O-])ccc1OC: 38.6 µM (inactive)
- CC1(C)Cc2ccccc2C(C)(Cl)C(=O)N1 (centres undefined): > 10 µM (inactive)
- COc1cc(/C=C2\C(=O)N(C(=O)Cc3ccccc3)N=C2C)cc(OC)c1OC: > 100 µM (inactive)

----------
# Test system: EKVX
# Measurement Notes: NCI tumour cell line growth inhibition, 48 h
The source made the active and inactive calls. Cut-off read from the data, not from the text of the source: active = GI50 up to about 1.1 µM and inactive = higher.
Quick reference for GI50 among some compounds
Measurement Type: GI50

- CCS(=O)(=O)CCn1cnc2c1c(=O)n(C)c(=O)n2C: > 100 µM (inactive)
- COc1ccc(/C(CC2OC(=O)c3ccccc32)=N\NC(N)=O)cc1 (configuration not stated): > 100 µM (inactive)
- O=C(CCCN1CCc2[nH]c3cc(F)ccc3c2C1)c1ccc(F)cc1: 14.8 µM (inactive)
- C[N+](C)(C)C(Cc1c[nH]c(=S)[nH]1)C(=O)O (configuration not stated): > 100 µM (inactive)
- COc1cc(Cc2nccc3cc(OC)c(OC)cc23)c(/N=N/N(C)C)cc1OC: 14.6 µM (inactive)
- CCN(CC)CC/N=c1\c2cc(OC)ccc2[nH]c2c([N+](=O)[O-])ccc(NCCN(CC)CC)c12: 1.93 µM (inactive)
- CC(CC(=O)N1C(=O)C(C)(C)[C@@H](O)[C@H]1CC(C)C(Cl)(Cl)Cl)C(Cl)(Cl)Cl (some centres not stated): > 100 µM (inactive)

----------
# key: entry, value: GI50
# Tested on: SF-268
# Measurement Notes: NCI tumour cell line growth inhibition, 48 h
Activity calls are given as the source filed them. No stated cut-off is given here; in the data, active = GI50 up to about 1.1 µM and inactive = higher.
Measurement Type: GI50

- CCOC(=O)CCC(C(=O)OCC)n1nnc2cc(Nc3c(C)[n+]([O-])c4ccc(Cl)cc4[n+]3[O-])ccc21 (centres undefined): 34.8 µM (inactive)
- CN1CC[C@]2(C)c3ccc(O)cc3CC3CCCC1C32C (some centres undefined): > 100 µM (inactive)
- COc1ccc(/C(CC2OC(=O)c3ccccc32)=N\NC(N)=O)cc1 (centres undefined): > 100 µM (inactive)
- COC(=O)c1ccc(NCc2c(O)ccc(O)c2Br)cc1Cl: 17.4 µM (inactive)

----------
# Tested on: UO-31
# Measurement Notes: NCI tumour cell line growth inhibition, 48 h
The source made the active and inactive calls. Rule as the data show it: active = GI50 up to about 1.1 µM and inactive = higher.
GI50 overview
Measurement Type: GI50

* C#CCOCn1cnc2c(Cl)ncnc21 | > 100 µM (inactive)
* Cc1cc(NC[C@H](O)[C@H](O)[C@H](O)CO)c(Sc2cc(=O)[nH]c(=O)[nH]2)cc1C | > 62.5 µM (inactive)
* CC[N+](C)(CC)CCC(O)(c1ccccc1)c1ccccc1 | > 100 µM (inactive)
* Cc1c(F)c(NC(=O)CN(C)C)c2c(=O)cc(-c3ccc(NC(=O)CN(C)C)c(F)c3)oc2c1F | 13.6 µM (inactive)
* CCOc1ccc2[nH]c3c(C)c4ccncc4c(C)c3c2c1 | 2.91 µM (inactive)
* CS/C(=N/C(=O)c1ccccc1)SCCS/C(=N\C(=O)c1ccccc1)SC | > 100 µM (inactive)
* CC12CC3C(CC1SCC(=O)O2)C3(C)C (stereo not given) | > 100 µM (inactive)
* CCCC(=O)OCC(O)CO (stereo not given) | 2860 µM (inactive)
* C[C@@]12C[C@@H](c3ccccc3O1)N1Cc3ccccc3CSC1=N2 | > 100 µM (inactive)
* COc1ccc(Oc2nc3c(N)cc(C(F)(F)F)cc3nc2-c2ccccc2)cc1 | 60.8 µM (inactive)
* CC(=O)OC12c3ccccc3C1CCCCCC21OCCCO1 (stereo not given) | > 100 µM (inactive)
* Cc1ccc(Sc2cc([N+](=O)[O-])cc(Sc3ccc(C)cc3)c2Sc2ccc(C)cc2)cc1 | > 100 µM (inactive)
* CCCCCCNC(=O)CCC(NC(=O)c1ccc(N(C)Cc2cnc3nc(N)nc(N)c3n2)cc1)C(=O)NCCCCCC (stereo not given) | > 100 µM (inactive)
* Cn1c(=O)nc2n(-c3ccc(Cl)cc3Cl)c3ccccc3nc-2c1=O | 12 µM (inactive)
* COCCOC(C)C(=O)C(O)S(=O)(=O)O (stereo not given) | > 100 µM (inactive)
* C/C(=C\CC/C=C(\C)CC/C=C(\C)CCC1SC1(C)C)CC/C=C(\C)CCC1OC1(C)C (stereo not given) | > 100 µM (inactive)
* O=C1C(=CNC(=S)c2ccccc2)C(=O)c2ccccc21 | 25.8 µM (inactive)
* Cn1cc(-c2cnc(-c3cn(C)c4ccccc34)cn2)c2ccccc21 | 4.79 µM (inactive)
* CSc1[nH]nc(N)c1C(=O)Nc1ccc(Cl)cc1 | 33 µM (inactive)
* O=C1O/C(=C(/c2ccc(Cl)cc2)c2nc3ccccc3[nH]2)C(O)=C1c1ccc(Cl)cc1 | 2.9 µM (inactive)

----------
Quick list: GI50 per entry.
# System: OVCAR-5
# Measurement Notes: NCI tumour cell line growth inhibition, 48 h
The source made the active and inactive calls. No stated cut-off is given here; in the data, active = GI50 up to about 1.1 µM and inactive = higher.
Measurement Type: GI50

* Cc1ncc([N+](=O)[O-])n1CCNC(=O)CCn1ccnc1[N+](=O)[O-] | > 100 µM (inactive)
* O=C1c2ccccc2-c2c1c(-c1ccc([N+](=O)[O-])cc1)nc1ccc3ccccc3c21 | > 100 µM (inactive)
* O=C1/C(=C/c2ccc(OC(=O)c3ccccc3)cc2)CCC/C1=C\c1ccc(OC(=O)c2ccccc2)cc1 | > 100 µM (inactive)
* CC(NC(=O)c1c(O)[nH]c(=S)[nH]c1=O)c1ccc([N+](=O)[O-])cc1 (stereo unspecified) | > 100 µM (inactive)
* Cc1ccc(S(=O)(=O)Oc2cc(N)c3c(n2)CCC3)cc1 | > 100 µM (inactive)
* CC1N(C)C(=O)OC12CCN(CCCC(=O)c1ccc(F)cc1)CC2 (stereo unspecified) | > 100 µM (inactive)
* COC1OC(Cc2nnc(C)o2)C(OCc2ccccc2)C(OCc2ccccc2)C1OCc1ccccc1 (stereo unspecified) | 41.2 µM (inactive)
* C=C(C)[C@@H]1CCC2=C[C@H](OC2=O)[C@@]2(C)C[C@@H]2C2=CC(C)=C(O2)[C@H]1O | > 75 µM (inactive)
* COc1ccc(N2C(=O)CSC2c2cc3cc(Br)ccc3nc2Cl)cc1 (stereo unspecified) | > 50 µM (inactive)
* CS/C(=N/C(=O)c1ccccc1)SCCS/C(=N\C(=O)c1ccccc1)SC | > 100 µM (inactive)
* Cn1c(=O)c2sc3c4sc5c(=O)n(C)c6ccccc6c5c4sc3c2c2ccccc21 | > 100 µM (inactive)
* O=C1N[C@@H]([C@H](CCCCCO)OC(=O)c2ccccc2)CO1 | > 100 µM (inactive)
* CCOc1cc(NC(C)=O)ccc1C(=O)NN1C(=O)/C(=C/c2ccco2)N=C1c1ccccc1 | > 100 µM (inactive)
* Cc1cc(NS(=O)(=O)c2ccc(Nc3c4ccccc4nc4c(C(=O)NC(CO)(CO)CO)cccc34)cc2)no1 | 62.8 µM (inactive)
* CC(C)c1cccc(C(C)C)c1N1C(=O)C(=O)C(c2nc3ccccc3o2)C(=O)C1=O | > 100 µM (inactive)
* C[C@@]12c3c4ccc(C=O)c3Oc3ccc(C=O)c(c31)Oc1c(C=O)ccc(c12)O4 | > 100 µM (inactive)
* CCOc1ccccc1NC(=O)C(=O)CC(=O)c1sc(Nc2nnc(-c3ccc(Cl)c(Cl)c3)o2)nc1C | > 100 µM (inactive)
* Cc1c(F)c(NC(=O)CN(C)C)c2c(=O)cc(-c3ccc(NC(=O)CN(C)C)c(F)c3)oc2c1F | 22.8 µM (inactive)
* O=[N+]([O-])c1ccc(C(Nc2ccccc2)c2ccc3cccnc3c2O)cc1 (stereo unspecified) | 8.2 µM (inactive)
* CC(=O)N(O)c1ccc(-c2nc3ccccc3s2)cc1 | > 100 µM (inactive)
* CN/N=C(/C=C/c1ccccc1)C(C)C | > 100 µM (inactive)
* C=CC(C)(C)c1cc([C@@H]2COc3cc(O)ccc3C2=O)c(O)c(OC)c1OC | 17.1 µM (inactive)
* O=C(CCc1n[nH]c(=S)o1)Nc1cc(Cl)ccc1Cl | > 100 µM (inactive)
* COC(=O)c1nc(-c2ccc(Cl)c(Cl)c2)nc2ccc(Cl)cc12 | 27.4 µM (inactive)
* CCCCCCNC(=O)CCC(NC(=O)c1ccc(N(C)Cc2cnc3nc(N)nc(N)c3n2)cc1)C(=O)NCCCCCC (stereo unspecified) | > 100 µM (inactive)
* CC(=O)NC(CCCCNC(=O)OCc1ccccc1)C(=O)NCc1ccccc1 (stereo unspecified) | > 100 µM (inactive)
* [C-]#[N+]C(=C\c1ccc(O)cc1)/C(=C/c1ccc(O)cc1)[N+]#[C-] [XANTOCILLIN] | 4.94 µM (inactive)
* CC(C)CC(NC(=O)C(CI)Cc1ccccc1)C(=O)Nc1ccccc1 (stereo unspecified) | > 100 µM (inactive)
* CN(C)CC1CCC/C1=N\O (stereo unspecified) | > 100 µM (inactive)
* COc1ccc(C(c2cc3c(cc2O)OCO3)N2CCOCC2)cc1OC (stereo unspecified) | 9.95 µM (inactive)
* NS(=O)(=O)c1ccc(NC(=S)NC(=O)Nc2ccc(Cl)c(Cl)c2)cc1 | 12.8 µM (inactive)
* COc1cc(/N=N/N(C)C)c(C(C)c2c3cc(OC)c(OC)cc3cc[n+]2C)cc1OC (stereo unspecified) | > 100 µM (inactive)
* COc1ccc(/C(=N/OCCCC(=O)O)c2cccs2)cc1 | > 100 µM (inactive)
* N#CC(/C(=N\NC(=O)c1ccncc1)C(=O)Nc1ccc([N+](=O)[O-])cc1[N+](=O)[O-])c1nc(-c2ccc(Br)cc2)cs1 (stereo unspecified) | > 100 µM (inactive)
* COc1ccc2c(c1)CC[C@@H]1C2CC[C@]2(C)C(=O)N(CCN3CCCC3)C(=O)CC12 (stereo partly specified) | 26.1 µM (inactive)
* C=C1CC(OC)(C(O)C(=O)N[C@H]2OCO[C@H]3C2O[C@H](C[C@@H](CO)OC)C(C)(C)C3OC)O[C@H](C)[C@@H]1C (stereo partly specified) | < 0.00931 µM (active)
